biological target: Prostaglandin D2 receptor 2 (Homo sapiens, UniProt Q9Y5Y4); assay: Displacement of[3H]PGD2 from human CRTH2 receptor expressed in […] cells; assay type: cell-based
Sequence (Q9Y5Y4 whole entry): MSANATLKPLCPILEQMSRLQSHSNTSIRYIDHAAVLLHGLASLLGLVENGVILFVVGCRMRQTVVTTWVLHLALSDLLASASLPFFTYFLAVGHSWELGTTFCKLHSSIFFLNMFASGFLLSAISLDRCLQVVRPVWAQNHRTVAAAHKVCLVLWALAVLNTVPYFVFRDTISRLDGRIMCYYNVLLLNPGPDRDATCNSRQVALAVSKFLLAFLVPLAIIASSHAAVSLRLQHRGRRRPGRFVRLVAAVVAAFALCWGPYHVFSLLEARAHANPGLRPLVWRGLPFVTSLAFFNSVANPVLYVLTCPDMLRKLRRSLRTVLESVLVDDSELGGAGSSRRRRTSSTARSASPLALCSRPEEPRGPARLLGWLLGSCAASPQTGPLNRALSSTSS
outcome_measure: IC50 (nM)

Before answering, review these 2 worked examples.
> print(dat)
                                   compound                         target.under.test  outcome.measure  reported.measurement
1  COc1ccc(C(c2ccccc2)c2nc(-c3ccc(Cl)cc3)c(CC(=O)O)s2)cc1 (stereo not given)  Prostaglandin D2 receptor 2 (Homo sapiens, UniProt Q9Y5Y4)             IC50                   8.4
2  O=C(O)Cc1sc(NCCc2ccccc2)nc1-c1ccc(Cl)cc1  Prostaglandin D2 receptor 2 (Homo sapiens, UniProt Q9Y5Y4)             IC50                   650

P. COc1ccc(C(c2ccccc2)c2nc(-c3ccc(F)cc3)c(CC(=O)O)s2)cc1 (stereo not given)
Q. CCC(c1ccccc1)c1nc(-c2ccc(Cl)cc2)c(CC(=O)O)s1 (stereo not given)
Among P and Q , whose measured IC50 is the smaller figure? Answer by stating the label of the chosen item.
P

Where these numbers come from: ChEMBL document CHEMBL1158509
